Data origin: patent US20180282331A1

- Tested on: E. coli M 50
- protocolNotes: MIC, agar dilution (MHA), compound alone
- Format: cell-based
- conditionDescription: Escherichia coli, M50; E. coli M 50; compound alone; MHA, 35° C., 18 hours; read-out: MIC
quantityKind: MIC

[in] Write down MIC measured for item CCOC(=O)c1nnnn1CCONC(=O)[C@@H]1CC[C@@H]2CN1C(=O)N2OS(=O)(=O)[O-].[Na+] [Example 49]
[out] > 32 µg/mL

[in] Write down MIC measured for item Cc1nnnn1CCONC(=O)[C@@H]1CC[C@@H]2CN1C(=O)N2OS(=O)(=O)[O-].[Na+] [Example 53]
[out] > 32 µg/mL

[in] Write down MIC measured for item NCc1nnn(CCONC(=O)[C@@H]2CC[C@@H]3CN2C(=O)N3OS(=O)(=O)O)n1 [Example 44]
[out] > 32 µg/mL

[in] Write down MIC measured for item O=C(Cn1cccn1)NNC(=O)[C@@H]1CC[C@@H]2CN1C(=O)N2OS(=O)(=O)[O-].[Na+] [Example 11]
[out] 1 µg/mL

[in] Write down MIC measured for item Nc1ncn(CC(=O)NNC(=O)[C@@H]2CC[C@@H]3CN2C(=O)N3OS(=O)(=O)O)n1 [Example 27]
[out] 1 µg/mL

[in] Write down MIC measured for item CCOC(=O)c1nnnn1CC(=O)NNC(=O)[C@@H]1CC[C@@H]2CN1C(=O)N2OS(=O)(=O)[O-].[Na+] [Example 5]
[out] 1 µg/mL

[in] Write down MIC measured for item CCOC(=O)Cc1nnn(CC(=O)NNC(=O)[C@@H]2CC[C@@H]3CN2C(=O)N3OS(=O)(=O)[O-])n1.[Na+] [Example 13]
[out] 2 µg/mL

[in] Write down MIC measured for item O=C(Cn1nccn1)NNC(=O)[C@@H]1CC[C@@H]2CN1C(=O)N2OS(=O)(=O)[O-].[Na+] [Example 6]
[out] 1 µg/mL

[in] Write down MIC measured for item NCCCCc1nnnn1CC(=O)NNC(=O)[C@@H]1CC[C@@H]2CN1C(=O)N2OS(=O)(=O)O [Example 33]
[out] 0.5 µg/mL

----------
- System: E. coli NCTC 13352
- protocolNotes: MIC, agar dilution (MHA), compound alone
- Type: cell-based
- conditionDescription: Escherichia coli, NCTC13352; E. coli NCTC 13352; compound alone; MHA, 35° C., 18 hours; read-out: MIC
quantityKind: MIC (µg/mL)
API: value field is a number in µg/mL; no unit string.

[in] Write down MIC measured for item NC(=O)Cc1nnnn1CC(=O)NNC(=O)[C@@H]1CC[C@@H]2CN1C(=O)N2OS(=O)(=O)[O-].[Na+] [Example 15]
[out] 0.5

[in] Write down MIC measured for item CO/N=C(\C(=O)N[C@@H]1C(=O)N2C(C(=O)[O-])=C(C[N+]3(C)CCCC3)CS[C@H]12)c1csc(N)n1 [Cefepime, reference compound]
[out] 4

[in] Write down MIC measured for item O=C(Cn1ccnc1COC(=O)[C@@H]1CCCN1)NNC(=O)[C@@H]1CC[C@@H]2CN1C(=O)N2OS(=O)(=O)O [Example 34]
[out] 1

----------
- System: E. coli NCTC 13352
- protocolNotes: MIC, agar dilution (MHA), compound alone
- Assay type: cell-based
- conditionDescription: Escherichia coli, NCTC13352; E. coli NCTC 13352; compound alone; MHA, 35° C., 18 hours; read-out: MIC
For each of the compounds below, state its MIC.
API: value field is a number in µg/mL; no unit string.

[in] Under E. coli NCTC 13352, report MIC for "O=C(NOCCn1nnnc1CCO)[C@@H]1CC[C@@H]2CN1C(=O)N2OS(=O)(=O)[O-].[Na+]"
[out] 8

[in] Under E. coli NCTC 13352, report MIC for "NCCCc1nnn(CC(=O)NNC(=O)[C@@H]2CC[C@@H]3CN2C(=O)N3OS(=O)(=O)O)n1"
[out] 0.5

[in] Under E. coli NCTC 13352, report MIC for "CCOC(=O)c1nnnn1CC(=O)NNC(=O)[C@@H]1CC[C@@H]2CN1C(=O)N2OS(=O)(=O)[O-].[Na+]"
[out] 0.5

[in] Under E. coli NCTC 13352, report MIC for "O=C(Cn1nccn1)NNC(=O)[C@@H]1CC[C@@H]2CN1C(=O)N2OS(=O)(=O)[O-].[Na+]"
[out] 1

[in] Under E. coli NCTC 13352, report MIC for "CCOC(=O)Cc1nnn(CC(=O)NNC(=O)[C@@H]2CC[C@@H]3CN2C(=O)N3OS(=O)(=O)[O-])n1.[Na+]"
[out] 1

[in] Under E. coli NCTC 13352, report MIC for "Nc1nnnn1CC(=O)NNC(=O)[C@@H]1CC[C@@H]2CN1C(=O)N2OS(=O)(=O)O"
[out] 1
